Test system: SF-295
Assay: NCI tumour cell line growth inhibition, 48 h
Activity calls are given as the source filed them. Rule as the data show it: active = GI50 up to about 1.1 µM and inactive = higher.
Readout Name: GI50

Before answering, review these 3 worked examples.
{"Molecule": "CCCCCCCCCCSC(=O)NC", "GI50": "50.1 µM (inactive)"}
{"Molecule": "COc1cc(NCC2COc3c(ccc(OC)c3OC)C2=O)c([N+](=O)[O-])cc1OC (stereo unspecified)", "GI50": "66.1 µM (inactive)"}
{"Molecule": "CN(c1ccccc1)S(=O)(=O)c1ccc([N+](=O)[O-])cc1", "GI50": "> 100 µM (inactive)"}

Below are some molecules; for each one, tell me its GI50.
1. Cc1ccc(C(=O)Nc2ncn(C3CC(O)C(CO)O3)c(=O)n2)cc1 (stereo unspecified)
2. COc1cc2c(cc1OC)C13CCN4CC5CCOC6CC(=O)N2C1C6C5CC43 (stereo unspecified)
3. CCOC(C)O[C@H]1C(=O)OCC1(C)C (stereo partly specified)

Result:
["> 100 µM (inactive)", "> 100 µM (inactive)", "> 100 µM (inactive)"]

---

Tested on: BT-549
Assay: NCI tumour cell line growth inhibition, 48 h
Active and inactive are the calls of the source. Rule as the data show it: active = GI50 up to about 1.1 µM and inactive = higher.
Returns: one label drawn from active, inactive

The following compounds have reported results that may help.
{"Compound": "Cc1nc(C)c(N2CCNCC2)c(O)n1", "Measured On": "BT-549", "Discrete Label": "inactive"}
{"Compound": "Cc1nc(C)c(N2CCN(S(=O)(=O)N(Cc3ccccc3)Cc3ccccc3)CC2)c(O)n1", "Measured On": "BT-549", "Discrete Label": "inactive"}
{"Compound": "O=NN1CCNC1Cc1ccccc1 (stereo not given)", "Measured On": "BT-549", "Discrete Label": "inactive"}

Q: Just curious, what result did COC(=O)C1(Cc2ccccc2)Cc2cc3c(cc2C1=O)CCC3 (stereo not given) get here?
Result: inactive

Q: Just curious, what result did Cc1nc(Cl)c(Cl)c(Cl)n1 get here?
Result: active

Q: Just curious, what result did CC1(C)O[C@H]2OC(CO[Si](C)(C)C(C)(C)C)C(N=[N+]=[N-])[C@H]2O1 (stereo not given in full) get here?
Result: inactive

---

Tested on: HOP-18
Assay: NCI tumour cell line growth inhibition, 48 h
The source made the active and inactive calls. Rule as the data show it: active = GI50 up to about 1.1 µM and inactive = higher.
Please respond with reported GI50 for every item in the list.

Before answering, review these 5 worked examples.
{"Compound": "NC(Cc1ccc2oc3cc(=O)c4ccccc4c-3nc2c1)C(=O)O (stereo unspecified)", "GI50": "25.8 µM (inactive)"}
{"Compound": "CCP(C)(=O)CC", "GI50": "> 100 µM (inactive)"}
{"Compound": "COC(=O)C(C(=O)C(=O)Nc1ccc(OC)cc1[N+](=O)[O-])c1nc2cc(C)c(C)cc2nc1O (stereo unspecified)", "GI50": "> 100 µM (inactive)"}
{"Compound": "Cc1ccccc1C(=O)c1ccccc1O", "GI50": "> 100 µM (inactive)"}
{"Compound": "C#CCOCn1cnc2c(N)ncnc21", "GI50": "> 100 µM (inactive)"}

Below are some compounds; for each one, tell me its GI50.
1. c1ccc(-c2ccnc3c2ccc2c(-c4ccccc4)ccnc23)cc1
2. CCCCCCCCCCCCCCCCCC(=O)O[C@H](COC(=O)CCCCCCCCCCC)COC(=O)CCCCCCCCCCCCCCC
3. COc1cccc2c1C1(O)C2CCCCCCCCCC12OCCCO2 (stereo unspecified)
4. CC(=O)Nc1ccc(/C=C/c2ccc(NC(=O)Nc3ccc(/C=C/c4ccc(NC(C)=O)cc4S(=O)(=O)O)c(S(=O)(=O)O)c3)cc2S(=O)(=O)O)c(S(=O)(=O)O)c1
5. O=C1CCCCC1S(=O)(=O)c1ccccc1 (stereo unspecified)
6. CO/S(=N/S(=O)(=O)c1ccccc1)c1ccccc1[N+](=O)[O-] (stereo unspecified)
7. CN(C)CCNC(=O)c1cccc2nc(-c3ccccc3)oc12
8. Cc1nc2ccccc2nc1NS(=O)(=O)c1ccc(N)cc1

Result:
1: 2.34 µM (inactive); 2: > 100 µM (inactive); 3: > 100 µM (inactive); 4: > 95.5 µM (inactive); 5: > 100 µM (inactive); 6: > 100 µM (inactive); 7: > 61.2 µM (inactive); 8: > 100 µM (inactive)

Below are some compounds; for each one, tell me its GI50.
1. CCCCCOc1ccc(/C=N\c2ccc(-c3ccc(/N=C\c4ccc(OCCCCC)cc4)c(OC)c3)cc2OC)cc1
2. N#CC(NNC(=O)c1ccccc1O)c1ccc(O)cc1 (stereo unspecified)
3. COc1cc2c3c(c1OC)Oc1ccc(cc1)CC1c4c(cc(OC)c(OC)c4Oc4ccc(cc4)CC3N(C)CC2)CCN1C (stereo unspecified)

Result:
1: 24.3 µM (inactive); 2: 9.1 µM (inactive); 3: 25.9 µM (inactive)
